Test system: MDA231 (breast adenocarcinoma)
assay.info: MTS assay, cytotoxicity, MDA231
protocol.conditions: Homo sapiens, MDA-MB-231, read-out: Cytotoxicity (IC50)
The label TRUE is reserved for IC50 strictly under 4 nM; FALSE covers values equal to or above it.

Take a look at these entries with their results.
| compound | discrete.label |
| --- | --- |
| CC(=O)O[C@@]12CO[C@@H]1C[C@H](O)[C@@]1(C)C(=O)[C@H](O)C3=C(C)[C@@H](OC(=O)[C@H](O)[C@@H](NC(=O)OC(C)(C)C)c4ccccc4)C[C@@](O)([C@@H](OC(=O)c4ccccc4)[C@H]21)C3(C)C [Taxotere, reference compound] | TRUE |
| CNC(=O)[C@H]1[C@@H](O)[C@@]2(O)c3c(OC)cc(OC)cc3O[C@@]2(c2ccc(Br)cc2)[C@@H]1c1ccccc1 (racemic) | TRUE |

Q: Would you kindly verify if IC50 of COc1ccc2c(c1)O[C@@]1(c3ccc(Br)cc3)[C@H](c3ccccc3)C[C@@H](O)[C@@]21O (racemic) is strictly less than 4 nM?
A: FALSE

Q: Would you kindly verify if IC50 of COC(=O)[C@H]1[C@@H](O)[C@@]2(O)c3ccc(OC)cc3O[C@@]2(c2ccc(Br)cc2)[C@@H]1c1ccccc1 (racemic) is strictly less than 4 nM?
A: FALSE

Q: Would you kindly verify if IC50 of COC(=O)[C@H]1[C@@H](O)[C@@]2(O)c3ccc(OCCCO)cc3O[C@@]2(c2ccc(OC)cc2)[C@@H]1c1ccccc1 (racemic) is strictly less than 4 nM?
A: FALSE

Q: Would you kindly verify if IC50 of COc1cc(OC)c2c(c1)O[C@@]1(c3ccc(Br)cc3)[C@H](c3ccccc3)[C@@H](C(N)=O)[C@@H](O)[C@@]21O (racemic) is strictly less than 4 nM?
A: TRUE

Q: Would you kindly verify if IC50 of COC(=O)[C@H]1[C@@H](O)[C@@]2(O)c3c(OC)cc(OC)cc3O[C@@]2(c2ccc(Br)cc2)[C@@H]1c1ccccc1 (racemic) is strictly less than 4 nM?
A: FALSE
